- assay.overview: In-vivo PK profile (mouse PK/ICR mice)
- applied.conditions: plasma, ICR mice, PO 10 mg/kg
assay.readout: Cmax (ng/mL)

[[record]]
chemical_structure = "COc1cc(OC)c(Cl)c(Nc2ncccc2-c2ncnc(Nc3cnn(C4CCNCC4)c3)n2)c1Cl"
measurement_units = "ng/mL"
quantitative_readout = 153


---

- assay.overview: In-vivo PK profile (mouse PK/ICR mice)
- applied.conditions: plasma, ICR mice, PO 10 mg/kg
assay.readout: MRT inf (h)

[[record]]
compound = "COc1cc(OC)c(Cl)c(Nc2ncccc2-c2ncnc(Nc3cnn(C4CCNCC4)c3)n2)c1Cl [Example 24]"
quantitative_readout = 7.94


---

Listed below: IC50 values for each entry.
- system.under.test: FGFR3 mutant (K650E) (Homo sapiens, UniProt P22607, K650E)
- Sequence (P22607 23-806 K650E): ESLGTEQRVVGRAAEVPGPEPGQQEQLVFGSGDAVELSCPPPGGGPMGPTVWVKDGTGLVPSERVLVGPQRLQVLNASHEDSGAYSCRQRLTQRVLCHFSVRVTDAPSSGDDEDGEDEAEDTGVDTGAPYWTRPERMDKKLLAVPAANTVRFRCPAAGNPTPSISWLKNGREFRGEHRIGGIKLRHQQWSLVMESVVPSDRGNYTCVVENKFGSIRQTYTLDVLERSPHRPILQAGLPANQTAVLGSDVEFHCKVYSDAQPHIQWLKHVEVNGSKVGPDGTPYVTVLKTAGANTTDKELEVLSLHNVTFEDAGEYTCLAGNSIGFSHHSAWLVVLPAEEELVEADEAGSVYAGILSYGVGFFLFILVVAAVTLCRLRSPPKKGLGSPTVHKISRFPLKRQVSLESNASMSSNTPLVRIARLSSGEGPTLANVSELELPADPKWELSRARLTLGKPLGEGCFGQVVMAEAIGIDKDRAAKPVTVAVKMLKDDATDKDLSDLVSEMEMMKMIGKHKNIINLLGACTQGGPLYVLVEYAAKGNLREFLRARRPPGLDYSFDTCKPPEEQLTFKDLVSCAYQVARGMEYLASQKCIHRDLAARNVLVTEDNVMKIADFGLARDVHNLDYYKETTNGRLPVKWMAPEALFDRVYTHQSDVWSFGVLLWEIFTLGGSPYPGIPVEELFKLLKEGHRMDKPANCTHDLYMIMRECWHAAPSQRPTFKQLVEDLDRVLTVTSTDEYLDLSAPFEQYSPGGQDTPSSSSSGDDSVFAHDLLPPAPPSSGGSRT
- assay.overview: Pan-FGFR mutant enzymatic activity
- applied.conditions: mutant enzyme
assay.readout: IC50

[[record]]
molecule = "COc1cc(OC)c(Cl)c(Nc2ncccc2-c2ncnc(Nc3ccc(N4C[C@@H](C)N[C@@H](C)C4)cc3)n2)c1Cl [Example 13]"
assay_readout = "IC50"
result = "< 100 nM"

[[record]]
molecule = "COc1cc(OC)c(Cl)c(Nc2ncccc2-c2ncnc(Nc3cnn(C4CCNCC4)c3)n2)c1Cl [Example 24]"
assay_readout = "IC50"
result = "< 100 nM"

[[record]]
molecule = "CCN1CCN(c2cccc(Nc3ncnc(-c4cccnc4Nc4c(Cl)c(OC)cc(OC)c4Cl)n3)c2)CC1 [Example 8]"
assay_readout = "IC50"
result = "< 100 nM"

[[record]]
molecule = "COc1cc(OC)c(Cl)c(Nc2ncccc2-c2ncnc(Nc3cnn(C4CCN(C(C)C)CC4)c3)n2)c1Cl [Example 22]"
assay_readout = "IC50"
result = "< 100 nM"

[[record]]
molecule = "CCN1CCN(c2ccc(Nc3ncnc(-c4cccnc4Nc4c(Cl)c(OC)cc(OC)c4Cl)n3)cc2)CC1 [Example 1]"
assay_readout = "IC50"
result = "< 100 nM"


---

- system.under.test: FGFR2 mutant (V564F) (Homo sapiens, UniProt P21802, V564F)
- Sequence (P21802 22-821 V564F): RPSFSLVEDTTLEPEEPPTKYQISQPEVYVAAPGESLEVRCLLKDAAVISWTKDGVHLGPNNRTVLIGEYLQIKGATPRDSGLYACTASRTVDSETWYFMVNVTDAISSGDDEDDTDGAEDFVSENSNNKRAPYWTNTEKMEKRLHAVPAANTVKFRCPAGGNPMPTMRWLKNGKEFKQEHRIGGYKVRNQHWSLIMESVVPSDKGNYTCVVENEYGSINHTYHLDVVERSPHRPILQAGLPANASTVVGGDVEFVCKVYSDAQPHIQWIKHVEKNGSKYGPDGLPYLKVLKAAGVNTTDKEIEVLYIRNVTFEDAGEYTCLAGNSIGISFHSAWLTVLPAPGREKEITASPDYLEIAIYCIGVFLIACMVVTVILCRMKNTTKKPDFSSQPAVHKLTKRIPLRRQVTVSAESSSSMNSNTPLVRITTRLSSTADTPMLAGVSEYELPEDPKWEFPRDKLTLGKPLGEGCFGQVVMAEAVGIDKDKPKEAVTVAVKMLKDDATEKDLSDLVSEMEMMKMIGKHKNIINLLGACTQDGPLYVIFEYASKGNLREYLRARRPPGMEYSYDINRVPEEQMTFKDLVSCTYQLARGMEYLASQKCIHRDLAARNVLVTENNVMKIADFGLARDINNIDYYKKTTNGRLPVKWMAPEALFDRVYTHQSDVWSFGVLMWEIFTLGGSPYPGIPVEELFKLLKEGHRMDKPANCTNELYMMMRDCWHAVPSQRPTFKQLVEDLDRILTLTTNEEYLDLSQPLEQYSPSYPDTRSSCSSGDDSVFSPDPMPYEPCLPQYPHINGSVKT
- assay.overview: Pan-FGFR mutant enzymatic activity
- applied.conditions: mutant enzyme
pIC50: −log10 of the molar value.
Listed below: pIC50 values for each entry.
assay.readout: pIC50

[[record]]
chemical_structure = "COc1cc(OC)c(Cl)c(Nc2ncccc2-c2ncnc(Nc3cnn(C4CCNCC4)c3)n2)c1Cl"
assay_readout = "pIC50"
result = "6.00 to 7.00"

[[record]]
chemical_structure = "COc1cc(OC)c(Cl)c(Nc2ncccc2-c2ncnc(Nc3ccc(N4C[C@@H](C)N[C@@H](C)C4)cc3)n2)c1Cl"
assay_readout = "pIC50"
result = "6.00 to 7.00"

[[record]]
chemical_structure = "CCN1CCN(c2ccc(Nc3ncnc(-c4cccnc4Nc4c(Cl)c(OC)cc(OC)c4Cl)n3)cc2)CC1"
assay_readout = "pIC50"
result = "6.00 to 7.00"

[[record]]
chemical_structure = "CCN1CCN(c2cccc(Nc3ncnc(-c4cccnc4Nc4c(Cl)c(OC)cc(OC)c4Cl)n3)c2)CC1"
assay_readout = "pIC50"
result = "6.00 to 7.00"

[[record]]
chemical_structure = "COc1cc(OC)c(Cl)c(Nc2ncccc2-c2ncnc(Nc3cnn(C4CCN(C(C)C)CC4)c3)n2)c1Cl"
assay_readout = "pIC50"
result = "6.00 to 7.00"


---

- assay.overview: In-vivo PK profile (mouse PK/ICR mice)
- applied.conditions: plasma, ICR mice, PO 10 mg/kg
assay.readout: half-life (h)

[[record]]
chemical_structure = "COc1cc(OC)c(Cl)c(Nc2ncccc2-c2ncnc(Nc3cnn(C4CCNCC4)c3)n2)c1Cl"
measurement_units = "h"
quantitative_readout = 4.83


---

Listed below: GI50 values for each entry.
- Tested on: UMUC3 (bladder cancer cell line)
- assay.overview: Pan-FGFR mutant cellular activity
- Type: cell-based
- applied.conditions: Homo sapiens, Table 4
assay.readout: GI50

[[record]]
molecule = "CCN1CCN(c2ccc(Nc3ncnc(-c4cccnc4Nc4c(Cl)c(OC)cc(OC)c4Cl)n3)cc2)CC1 [Example 1]"
system_under_test = "UMUC3 (bladder cancer cell line)"
assay_readout = "GI50"
result = "1 to 10 µM"

[[record]]
molecule = "CCN1CCN(c2cccc(Nc3ncnc(-c4cccnc4Nc4c(Cl)c(OC)cc(OC)c4Cl)n3)c2)CC1 [Example 8]"
system_under_test = "UMUC3 (bladder cancer cell line)"
assay_readout = "GI50"
result = "1 to 10 µM"

[[record]]
molecule = "COc1cc(OC)c(Cl)c(Nc2ncccc2-c2ncnc(Nc3ccc(N4C[C@@H](C)N[C@@H](C)C4)cc3)n2)c1Cl [Example 13]"
system_under_test = "UMUC3 (bladder cancer cell line)"
assay_readout = "GI50"
result = "1 to 10 µM"

[[record]]
molecule = "COc1cc(OC)c(Cl)c(Nc2ncccc2-c2ncnc(Nc3cnn(C4CCN(C(C)C)CC4)c3)n2)c1Cl [Example 22]"
system_under_test = "UMUC3 (bladder cancer cell line)"
assay_readout = "GI50"
result = "< 1 µM"

[[record]]
molecule = "COc1cc(OC)c(Cl)c(Nc2ncccc2-c2ncnc(Nc3cnn(C4CCNCC4)c3)n2)c1Cl [Example 24]"
system_under_test = "UMUC3 (bladder cancer cell line)"
assay_readout = "GI50"
result = "1 to 10 µM"

